Entries and their measured Kd follow.
- EXPERIMENTAL_SYSTEM: T1, human serum albumin (human, UniProt P02768 25-609)
- T1 construct: mature; Bought purified serum albumin; also called HSA; Human albumin
- TEST_NAME: SPR, Fab captured; albumin taken as HSA;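 further: antibody captured on the sensor surface, albumin injected for a 3 min association phase, then dissociation followed, with signals corrected against a blank flow cell and buffer-only injections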
The reply should be a number in nM, with the unit left off.

I'd like to know its Kd. The binder in question is CA645 gL4gH35 Fab (Fab, V domains shown, Fab: human gamma1 CH1, human kappa (Km3); Kabat numbering) VH: EVQLLESGGGLVQPGGSLRLSCAVSGIDLSNYAINWVRQAPGKGLEWIGIIWAEGTTFYATWAKGRFTISRDNSKNTVYLQMNSLRAEDTAVYYCARTVPGYSTAPYFDLWGQGTLVTVSS VL: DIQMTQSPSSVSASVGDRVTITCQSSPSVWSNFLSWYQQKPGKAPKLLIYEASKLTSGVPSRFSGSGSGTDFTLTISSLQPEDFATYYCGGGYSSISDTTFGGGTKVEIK
15.1

Same question, CA645 gL15gH5 Fab (Fab, V domains shown, Fab: human gamma1 CH1, human kappa (Km3); Kabat numbering) VH: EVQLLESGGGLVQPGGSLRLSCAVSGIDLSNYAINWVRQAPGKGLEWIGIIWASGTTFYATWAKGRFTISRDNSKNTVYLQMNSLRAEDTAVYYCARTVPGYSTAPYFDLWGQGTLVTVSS VL: DIQMTQSPSSVSASVGDRVTITCQSSPSVWRNFLSWYQQKPGKAPKLLIYEASKLTSGVPSRFSGSGSGTDFTLTISSLQPEDFATYYCGGGYSSISDTTFGGGTKVEIK this time
4.62

Same question, CA645 gL4gH31 Fab (Fab, V domains shown, Fab: human gamma1 CH1, human kappa (Km3); Kabat numbering) VH: EVQLLESGGGLVQPGGSLRLSCAVSGIDLSNYAINWVRQAPGKGLEWIGIIWAVGTTFYATWAKGRFTISRDNSKNTVYLQMNSLRAEDTAVYYCARTVPGYSTAPYFDLWGQGTLVTVSS VL: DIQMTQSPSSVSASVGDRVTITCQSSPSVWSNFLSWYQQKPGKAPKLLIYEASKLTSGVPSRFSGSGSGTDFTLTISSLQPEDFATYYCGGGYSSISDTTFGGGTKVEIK this time
4.18

Same question, CA645 gL4gH34 Fab (Fab, V domains shown, Fab: human gamma1 CH1, human kappa (Km3); Kabat numbering) VH: EVQLLESGGGLVQPGGSLRLSCAVSGIDLSNYAINWVRQAPGKGLEWIGIIWAQGTTFYATWAKGRFTISRDNSKNTVYLQMNSLRAEDTAVYYCARTVPGYSTAPYFDLWGQGTLVTVSS VL: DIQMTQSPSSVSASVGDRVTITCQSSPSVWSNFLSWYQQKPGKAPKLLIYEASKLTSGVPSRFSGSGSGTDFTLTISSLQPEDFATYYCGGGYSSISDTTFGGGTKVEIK this time
11

Same question, CA645 gL16gH5 Fab (Fab, V domains shown, Fab: human gamma1 CH1, human kappa (Km3); Kabat numbering) VH: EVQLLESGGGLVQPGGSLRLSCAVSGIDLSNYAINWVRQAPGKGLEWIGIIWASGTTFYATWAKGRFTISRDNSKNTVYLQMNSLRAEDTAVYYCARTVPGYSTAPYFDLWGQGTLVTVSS VL: DIQMTQSPSSVSASVGDRVTITCQSSPSVWWNFLSWYQQKPGKAPKLLIYEASKLTSGVPSRFSGSGSGTDFTLTISSLQPEDFATYYCGGGYSSISDTTFGGGTKVEIK this time
3.06

Values from patent US20190144529A1
